System Tested: T1, TRBP-ΔC (UniProt Q15633-2 9-215)
T1 sequence: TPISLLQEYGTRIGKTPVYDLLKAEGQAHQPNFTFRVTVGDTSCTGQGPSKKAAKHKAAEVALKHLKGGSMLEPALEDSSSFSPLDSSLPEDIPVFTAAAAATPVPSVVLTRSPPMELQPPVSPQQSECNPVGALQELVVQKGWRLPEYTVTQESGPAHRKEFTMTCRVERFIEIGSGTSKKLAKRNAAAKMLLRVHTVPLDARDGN
Assay: EMSA; apparent Kd; nH 1.1; text gives error 0.1; 50 mM sodium cacodylate pH 7.0, 50 mM potassium glutamate, 5% glycerol; EMSA 0.5 pM RNA, 30 min at room temperature, gel 0.25X TBE at 10 C; CD at 10 C with 5-15 uM RNA
Recorded Conditions: protein: recombinant; label: 5'-32P top strand; imperfect duplex with U-bulge and A-A mismatch

{"Binder": "miR-16-1/miR-16-1* (dsRNA) RNA 1: UAGCAGCACGUAAAUAUUGGCG RNA 2: CCAGUAUUAACUGUGCUGCUGAA", "Kd / nM": 1100}
